- protocol_description: Selectivity index, ratio of GI50 for human THP1 cells to MIC90 for Mycobacterium tuberculosis H37Ra ATCC 25177 dormant stage
- Type: toxicity, cell-based, THP-1
- test_parameters: read-out: Selectivity Index
Please respond with reported selectivity ratio for every item in the list.
Numbers only.

sample_smiles: C/C(=N\Nc1nc(-c2ccc(Br)cc2)cs1)c1sc(-c2ccccc2)nc1C
reported: 1

Respectfully, I request selectivity ratio for each entry included below.
1. C/C(=N\Nc1nc(-c2ccc(Cl)cc2)cs1)c1sc(-c2ccccc2)nc1C
2. C/C(=N\Nc1nc(-c2ccccc2)cs1)c1sc(-c2ccccc2)nc1C
3. C/C(=N\Nc1nc(-c2ccc(C)cc2)cs1)c1sc(-c2ccccc2)nc1C
4. C/C(=N\Nc1nc(-c2ccc(F)cc2)cs1)c1sc(C)nc1C
5. C/C(=N\Nc1nc(-c2ccccc2)cs1)c1sc(C)nc1C
6. C/C(=N\Nc1nc(-c2ccc(F)cc2)cs1)c1sc(-c2ccccc2)nc1C

1
8
1
2
6
1

Respectfully, I request selectivity ratio for each entry included below.
1. C/C(=N\Nc1nc(-c2ccc(Br)cc2)cs1)c1sc(C)nc1C
2. C/C(=N\Nc1nc(-c2ccc(C)cc2)cs1)c1sc(C)nc1C
3. COc1ccc(-c2csc(N/N=C(\C)c3sc(-c4ccccc4)nc3C)n2)cc1
4. C/C(=N\NC(N)=S)c1sc(C)nc1C
5. COc1ccc(-c2csc(N/N=C(\C)c3sc(C)nc3C)n2)cc1
6. C/C(=N\NC(N)=S)c1sc(-c2ccccc2)nc1C
7. C/C(=N\Nc1nc(-c2ccc(Cl)cc2)cs1)c1sc(C)nc1C

[2, 2, 14, 3, 5, 40, 1]

====

- protocol_description: Selectivity index, ratio of GI50 for human MCF7 cells to MIC90 for Mycobacterium tuberculosis H37Ra ATCC 25177 active stage
- Format: toxicity, cell-based
- test_parameters: read-out: Selectivity Index
Lab note - cut at 3 for selectivity ratio: satisfied if strictly below, not satisfied if not.

Previously resolved entries follow.
sample_smiles: COc1ccc(-c2csc(N/N=C(\C)c3sc(C)nc3C)n2)cc1
class_label: satisfied
--
sample_smiles: C/C(=N\Nc1nc(-c2ccc(F)cc2)cs1)c1sc(C)nc1C
class_label: not satisfied
--
sample_smiles: C/C(=N\Nc1nc(-c2ccc(F)cc2)cs1)c1sc(-c2ccccc2)nc1C
class_label: satisfied
--
sample_smiles: COc1ccc(-c2csc(N/N=C(\C)c3sc(-c4ccccc4)nc3C)n2)cc1
class_label: not satisfied
--
sample_smiles: C/C(=N\Nc1nc(-c2ccccc2)cs1)c1sc(C)nc1C
class_label: not satisfied
--
sample_smiles: C/C(=N\NC(N)=S)c1sc(-c2ccccc2)nc1C
class_label: not satisfied

For this compound, is selectivity ratio lower than 3? C/C(=N\Nc1nc(-c2ccc(C)cc2)cs1)c1sc(C)nc1C satisfied

Now consider C/C(=N\Nc1nc(-c2ccc(Br)cc2)cs1)c1sc(C)nc1C . satisfied

====

- protocol_description: Selectivity index, ratio of GI50 for human THP1 cells to MIC90 for Mycobacterium bovis BCG ATCC 35743 active stage
- Type: toxicity, cell-based, THP-1
- test_parameters: read-out: Selectivity Index
Please respond with reported selectivity ratio for every item in the list.
One number for each entry.

// worked examples, selectivity ratio included
sample_smiles: C/C(=N\Nc1nc(-c2ccc(C)cc2)cs1)c1sc(-c2ccccc2)nc1C
selectivity ratio: 5
--
sample_smiles: C/C(=N\Nc1nc(-c2ccc(F)cc2)cs1)c1sc(-c2ccccc2)nc1C
selectivity ratio: 1

Respectfully, I request selectivity ratio for each entry included below.
1. C/C(=N\NC(N)=S)c1sc(C)nc1C
2. C/C(=N\NC(N)=S)c1sc(-c2ccccc2)nc1C
3. C/C(=N\Nc1nc(-c2ccc(C)cc2)cs1)c1sc(C)nc1C
4. C/C(=N\Nc1nc(-c2ccc(Cl)cc2)cs1)c1sc(C)nc1C
5. COc1ccc(-c2csc(N/N=C(\C)c3sc(-c4ccccc4)nc3C)n2)cc1
6. C/C(=N\Nc1nc(-c2ccc(Cl)cc2)cs1)c1sc(-c2ccccc2)nc1C
7. C/C(=N\Nc1nc(-c2ccc(F)cc2)cs1)c1sc(C)nc1C

1: 1; 2: 27; 3: 1; 4: 6; 5: 7; 6: 1; 7: 11
